Overview of reported normalized growth across a group of molecules:
Experiment: chemical genetic growth profiling, strain panel (AID 1159580);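 further: tested at 20 µM; growth read once vehicle control cultures reached saturation at 30 °C; 1 = growth at the plate median or of vehicle wells; lower values mean less growth of the strain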
Settings: S. cerevisiae deletion strains, growth OD, locus YAL026C, strain drs2, stronger effect = lower value
Where a name gives a salt, the structure may show the parent alone. The campaign covered roughly 5,500 compounds. About 2,000 (36%) were called active. About 18% were inconclusive and are not listed. The list shows a part of the results. Where a SMILES comes first, the peptide text is derived from it. The star is where a group is joined. Tfa = O=C(C(F)(F)F)*
A bare number is all that is needed in reply.

Below: 7 molecules and their reported normalized growth.
INSERT INTO measurements (molecule, measurement) VALUES
  ('O=C(O)CN(CC(=O)O)Cc1cc2c(-c3ccccc3C(=O)O)c3cc(CN(CC(=O)O)CC(=O)O)c(=O)cc-3oc2cc1O', 0.904),
  ('CC(C)C(NC(=O)C(Cc1ccc(O)cc1)NC(=O)C(NC(=O)C(F)(F)F)C(C)C)C(=O)O (stereo not drawn) (Tfa-Val-Tyr-Val-OH; configuration not given here)', 1),
  ('O=C1OC2(c3ccc(O)cc3Oc3cc(O)ccc32)c2ccccc21', 0.997),
  ('O=c1cc(-c2ccccc2O)oc2cc(O)ccc12', 0.977),
  ('Cc1ccc(C)c(OCCCC(C)(C)C(=O)O)c1', 0.919),
  ('CCNC(=O)CC[C@H](N)C(=O)O', 1),
  ('COc1cc2c(cc1OC)C1Cc3ccc(OC)c(OC)c3CN1CC2 (stereo not drawn)', 0.972);

Field request: normalized growth | item: CC1=CC2C(CC1=O)C(C)=CCC2C(C)C (stereo not drawn)
0.996

* * *

Assay: chemical genetic growth profiling, strain panel (AID 1159580)
Conditions: S. cerevisiae deletion strains, growth OD, locus YKR091W, strain srl3, stronger effect = lower value
The campaign covered roughly 5,500 compounds. About 2,000 (36%) were called active. Inconclusive results (about 18%) are left out. The list shows a part of the results.
Label Condition met when normalized growth is strictly below 1; at or above that, label Condition not met.

Below are worked cases with known answers.
INSERT INTO measurements (compound, class_label) VALUES
  ('CCN(CC)C(=O)c1cccc(C)c1', 'Condition not met'),
  ('N[C@@H](CC(=O)N1CCn2c(nnc2C(F)(F)F)C1)Cc1cc(F)c(F)cc1F', 'Condition met'),
  ('Cc1ccc(Cl)c(Nc2ccccc2C(=O)O)c1Cl', 'Condition met'),
  ('NS(=O)(=O)c1cc2c(cc1Cl)NC(C(Cl)Cl)NS2(=O)=O (stereo not given)', 'Condition met'),
  ('Cc1c(Cl)cccc1Nc1ccccc1C(=O)O', 'Condition met');

Please let me know if CCCCOC(=O)c1ccc(N)cc1 shows normalized growth below 1.
Condition met

* * *

Overview of reported normalized growth across a group of molecules:
Experiment: chemical genetic growth profiling, strain panel (AID 1159580)
Details: S. cerevisiae deletion strains, growth OD, locus YMR277W, strain FCP1, stronger effect = lower value
Screen size: about 5,500 compounds; about 2,000 (36%) were called active. Roughly 18% stayed inconclusive and do not appear here. The list shows a part of the results.
A bare number is all that is needed in reply.

Below: 6 molecules and their reported normalized growth.
INSERT INTO measurements (molecule, observation_type, measurement) VALUES
  ('O=C(Nc1ccc(Cl)cc1)OCCSc1nc2ccccc2s1', 'normalized growth', 0.979),
  ('O=C(/C=C/Sc1nc2ccccc2s1)c1ccc(Cl)cc1', 'normalized growth', 0.988),
  ('Cc1onc(-c2c(F)cccc2Cl)c1C(=O)NNc1cc(Cl)cc(Cl)c1', 'normalized growth', 0.983),
  ('CCCCN(C)C(=O)c1cc([N+](=O)[O-])cc2c1-c1ccc([N+](=O)[O-])cc1C2=C(C#N)C#N', 'normalized growth', 0.976),
  ('FC(F)(F)c1cccc(-n2c(CSCc3cccc4ccccc34)n[nH]c2=S)c1', 'normalized growth', 0.976),
  ('CC(=O)Nc1ccc(S(=O)(=O)Nc2ccccc2Oc2ccc(Cl)cc2Cl)cc1', 'normalized growth', 0.995);

Field request: normalized growth | item: S=c1[nH]nc(Nc2ccc(I)cc2)s1
0.863

Field request: normalized growth | item: Cc1c(C(=O)N(Cc2ccccc2)Cc2cccs2)cnn1-c1ccc(Cl)cc1
0.989

Field request: normalized growth | item: CCCCCCCCCCCC(=O)NOC(=O)c1c(-c2c(Cl)cccc2Cl)noc1C
0.977

Field request: normalized growth | item: N#CC(C#N)=Cc1ccc(-c2ccccc2C(F)(F)F)o1
0.935

Field request: normalized growth | item: CCc1ccn2cc(Nc3ccccc3Cl)nc2c1
0.981

* * *

Assay: chemical genetic growth profiling, strain panel (AID 1159580)
Conditions: S. cerevisiae deletion strains, growth OD, locus YGL167C, strain pmr1, stronger effect = lower value
Screen size: about 5,500 compounds; about 2,000 (36%) were called active. Inconclusive results (about 18%) are left out. This is one part of the list.
OBSERVATION_TYPE: normalized growth
A bare number is all that is needed in reply.

Below: 2 molecules and their reported normalized growth.
INSERT INTO results (given_smiles, observation_type, measurement) VALUES
  ('COc1cc([C@@H]2c3cc4c(c(O)c3C[C@H]3COC(=O)[C@@H]32)OCO4)cc(OC)c1OC', 'normalized growth', 0.991),
  ('COc1ccc([C@H]2Oc3cc(OC)cc(OC)c3C[C@H]2O)cc1', 'normalized growth', 0.989);

Field request: normalized growth | item: COc1ccc2c(c1)O[C@H]1c3ccc(OC)cc3OC[C@@H]21
1.02

* * *

Overview of reported normalized growth across a group of compounds:
Test: chemical genetic growth profiling, strain panel (AID 1159580);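 further: tested at 20 µM; growth read once vehicle control cultures reached saturation at 30 °C; 1 = growth at the plate median or of vehicle wells; lower values mean less growth of the strain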
Details: S. cerevisiae deletion strains, growth OD, locus YDR388W, stronger effect = lower value
In all, about 5,500 compounds went through this assay and about 2,000 (36%) were called active. Not shown: some 18% with an inconclusive outcome. Some of the results follow.

Below: 4 compounds and their reported normalized growth.
INSERT INTO results (compound, observation_type, measurement) VALUES
  ('C=CCCCCCCCCCCCC(O)CC(O)COC(C)=O (stereo not given) (tested in a mixture with another compound)', 'normalized growth', '0.991 (inactive)'),
  ('CC(=O)OCC[C@H](C)CCC=C(C)C', 'normalized growth', '1.02 (inactive)'),
  ('O=C1[C@H](CCC(O)c2ccc(F)cc2)[C@@H](c2ccc(O)cc2)N1c1ccc(F)cc1 (stereo not given in full)', 'normalized growth', '0.972 (inactive)'),
  ('CC1(C)OC(=O)C=CC2(C)C1CC(O)C1(C)C2CCC2(C)C(c3ccoc3)OC(=O)C3OC321 (stereo not given)', 'normalized growth', '1.02 (inactive)');

Alright, here's another compound for you.
Field request: normalized growth | item: CC(=O)OCC(OC(C)=O)C(OC(C)=O)C(OC(C)=O)C(OC(C)=O)C(COC(C)=O)OC(C)=O (stereo not given)
0.983 (inactive)

* * *

Test: chemical genetic growth profiling, strain panel (AID 1159580);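 further: tested at 20 µM; growth read once vehicle control cultures reached saturation at 30 °C; 1 = growth at the plate median or of vehicle wells; lower values mean less growth of the strain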
Details: S. cerevisiae deletion strains, growth OD, locus YHR027C, strain rpn1, stronger effect = lower value
Screen size: about 5,500 compounds; about 2,000 (36%) were called active. Roughly 18% stayed inconclusive and do not appear here. Some of the results follow.
Label criterion met when normalized growth is strictly below 1; at or above that, label criterion not met.

INSERT INTO assay_data (compound, class_label) VALUES
  ('C=C1C(=O)O[C@@H]2C[C@@]3(C)CCC[C@H](C)C3=C[C@H]12', 'criterion met'),
  ('O=c1cc(-c2ccccc2O)oc2cc(O)ccc12', 'criterion met'),
  ('CCOC(=O)Nc1nc2ccccc2[nH]1', 'criterion met');

Continue with the compound presented below.
Please let me know if CC(=O)OC1CCC2(C)C(=CC=C3C2CCC2(C)C3CCC2C(C)/C=C/C(C)C(C)C)C1(C)C (configuration not stated) shows normalized growth below 1.
criterion not met

* * *

Assay: chemical genetic growth profiling, strain panel (AID 1159580);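 further: tested at 20 µM; growth read once vehicle control cultures reached saturation at 30 °C; 1 = growth at the plate median or of vehicle wells; lower values mean less growth of the strain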
Settings: S. cerevisiae deletion strains, growth OD, locus YKR026C, strain gcn3, stronger effect = lower value
Hit rate of the full screen: of about 5,500 compounds, about 2,000 (36%) were called active. Another 18% or so got no clear call; they are omitted. This is one part of the list.
Overview of reported normalized growth across a group of compounds:
A bare number is all that is needed in reply.

INSERT INTO assay_data (compound, measurement) VALUES
  ('Cc1cc(-c2ccccc2)nnc1NCCN1CCOCC1', 0.995),
  ('O=C1OC2(c3ccc(O)cc3Oc3cc(O)ccc32)c2ccccc21', 1.02),
  ('CO[C@@]1(NC(=O)CSCC#N)C(=O)N2C(C(=O)O)=C(CSc3nnnn3C)CSC21 (stereo not given in full)', 0.996),
  ('Nc1ccc(N=Nc2ccccc2)c(N)n1', 0.969);

Alright, here's another compound for you.
Field request: normalized growth | item: C=C1CCC(OC(C)=O)/C(C)=C/C[C@@H]2[C@@H]1CC2(C)C (stereo not given in full)
0.987
